test: Blood brain barrier permeation; assay type: in vivo, ICR mice; details: male, ICR, mouse, brain/plasma, po, 30 mg/kg, oral once 30 mg/kg, 1 hr, read-out: B/P ratio
valueType: Kp at 1 h
Answer as a number with no unit attached.

Take a look at these entries with their results.
Nc1nccc(-c2ccc(O)c(-c3ccnc(N)n3)n2)n1 : 2.76
Nc1cc(-c2ccc(O)c(-c3ccnc(N)n3)n2)ccn1 : 1.56

What measured Kp at 1 h goes with Nc1nccc(-c2nc(-c3ccnc(N)c3F)ccc2O)n1 ?
1.53

###

assay: Blood brain barrier permeation; assay type: in vivo, ICR mice; settings: male, ICR, mouse, brain/plasma, po, 30 mg/kg, oral once 30 mg/kg, 4 hrs, read-out: B/P ratio
valueType: Kp at 4 h
Response field accepts a number only; no unit should be typed.

Nc1cc(-c2ccc(O)c(-c3ccnc(N)n3)n2)ccn1 [Example 10] : 2.78
Nc1nccc(-c2ccc(O)c(-c3ccnc(N)n3)n2)n1 [Example 61] : 4.49

Name the recorded Kp at 4 h for Nc1nccc(-c2nc(-c3ccnc(N)c3F)ccc2O)n1 [Example 8] .
2.41
